Record form. Attribute: F' APRIL. Fill in for each entry.
# Experimental target: T1, Murine APRIL (mouse, UniProt Q9D777 105-241, limits assumed)
# T1 sequence (looked up): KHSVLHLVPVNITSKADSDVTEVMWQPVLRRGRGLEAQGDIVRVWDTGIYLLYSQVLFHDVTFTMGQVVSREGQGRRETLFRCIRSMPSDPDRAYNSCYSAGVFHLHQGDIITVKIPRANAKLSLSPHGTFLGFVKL
# Experimental protocol: NNS library, phage display;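 also: ligand versus display occurrence-to-degeneracy ratio and higher means enriched by binding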
# respond with the number and nothing more

Lab book: F' APRIL of SLSCRKEQGKAYDHLLRDCISCASICGQHPKQCAYFCENKLR (receptor, phage library variant, format as m9) [TACI_d2 F78A] noted as 0

Lab book: F' APRIL of SLSCRKEQGKFQDHLLRDCISCASICGQHPKQCAYFCENKLR (receptor, phage library variant, format as m9) [TACI_d2 Y79Q] noted as 0

Lab book: F' APRIL of SLSCRKEQGKFGDHLLRDCISCASICGQHPKQCAYFCENKLR (receptor, phage library variant, format as m9) [TACI_d2 Y79G] noted as 0

Lab book: F' APRIL of SLSCRKEQGKFYDHLLCDCISCASICGQHPKQCAYFCENKLR (receptor, phage library variant, format as m9) [TACI_d2 R84C] noted as 0

Lab book: F' APRIL of SLSCRKEQGKFYDHLLRDCISCASFCGQHPKQCAYFCENKLR (receptor, phage library variant, format as m9) [TACI_d2 I92F] noted as 0

Lab book: F' APRIL of SLSCRKEQGKFIDHLLRDCISCASICGQHPKQCAYFCENKLR (receptor, phage library variant, format as m9) [TACI_d2 Y79I] noted as 4
